Entry source: patent US9204653B2

- Test system: Mycosphaerella graminicola; Anamorph: Septoria tritici; Bayer Code SEPTTR
- Experiment: Leaf blotch of wheat, foliar fungicide treatment, one day protectant (1DP) or three day curative (3DC)
- Type: in vivo, Septoria tritici on wheat plants (variety Yuma)
- Reported Conditions: Zymoseptoria tritici, 72 h, three day curative (3DC), 25 ppm, percent control rating, read-out: SEPTTR 3DC 25 ppm
pest or weed control at 25 ppm values, listed per item

Please review the following examples before continuing.
CC(C)=NOc1ncc(F)c(N)n1
76 to 100%
O=C(Nc1nc(O)ncc1F)NC1CCCC1
76 to 100%
Fc1cnc(OCc2ccccc2)nc1NNc1ccc(Cl)c(Cl)c1
0 to 25%
CN(Cc1ccc(C(F)(F)F)cc1)c1nc(O)ncc1F
26 to 50%
COc1ncc(F)c(N(NC(=O)c2ccc(Cl)cc2)C(=O)c2ccc(Cl)cc2)n1
0 to 25%

Lab note: "COc1ncc(F)c(NOCc2ccco2)n1" gave pest or weed control at 25 ppm of 0 to 25%

Lab note: "Cc1ccc(COc2ncc(F)c(NS(=O)(=O)C3CC3)n2)cc1" gave pest or weed control at 25 ppm of 0 to 25%

Lab note: "COc1ncc(F)c(/N=N/c2c(Cl)cccc2Cl)n1" gave pest or weed control at 25 ppm of 0 to 25%

Lab note: "COc1ncc(F)c(N(O)Cc2ccccc2)n1" gave pest or weed control at 25 ppm of 26 to 50%

Lab note: "Cn1ncc(C(=O)Nc2nc(O)ncc2F)c1Cl" gave pest or weed control at 25 ppm of 0 to 25%

Lab note: "COc1ncc(F)c(NNc2ccc(Cl)nn2)n1" gave pest or weed control at 25 ppm of 0 to 25%

Lab note: "Cc1ccc(COc2ncc(F)c(NNc3nccc(C(F)(F)F)n3)n2)cc1" gave pest or weed control at 25 ppm of 0 to 25%
